Sourced from patent US20190152992A1

ASSAY SYSTEM: human alpha2C receptors (Homo sapiens, UniProt P18825)
ASSAY PROCEDURE: Determination of alpha2C antagonistic activity in vitro (FLIPR calcium assay)
MEASURED ENDPOINT: IC50 (nM)

Study these solved cases before continuing.
COMPOUND	ASSAY SYSTEM	SCALE UNIT	IC50
CC(C)c1nc2ccc(F)cc2n1[C@H]1CCCN(C[C@H]2COc3ccccc3O2)C1 [example 85]	human alpha2C receptors (Homo sapiens, UniProt P18825)	nM	1260
O=S1(=O)Nc2ccccc2N1[C@H]1CCCN(C[C@H]2COc3ccccc3O2)C1 [example 146]	human alpha2C receptors (Homo sapiens, UniProt P18825)	nM	1050
O=S1(=O)c2ccccc2CN1[C@H]1CCCN(C[C@H]2COc3ccccc3O2)C1 [example 81]	human alpha2C receptors (Homo sapiens, UniProt P18825)	nM	653

a = C[C@]1(c2ccccc2)CCN([C@H]2CCCN(C[C@H]3COc4ccccc4O3)C2)C1=O [example 14]
b = O=C1C(=O)N([C@H]2CCCN(C[C@H]3COc4ccccc4O3)C2)C(=O)N1C1CCCC1 [example 127]
Task: Given a and given b , which shows the smaller recorded IC50? Choose, then provide that item's label.
Output: b
(b: 0.027 nM, a: 0.048 nM)

----------
ASSAY SYSTEM: human alpha2A receptors (Homo sapiens)
Sequence (P08913 whole entry): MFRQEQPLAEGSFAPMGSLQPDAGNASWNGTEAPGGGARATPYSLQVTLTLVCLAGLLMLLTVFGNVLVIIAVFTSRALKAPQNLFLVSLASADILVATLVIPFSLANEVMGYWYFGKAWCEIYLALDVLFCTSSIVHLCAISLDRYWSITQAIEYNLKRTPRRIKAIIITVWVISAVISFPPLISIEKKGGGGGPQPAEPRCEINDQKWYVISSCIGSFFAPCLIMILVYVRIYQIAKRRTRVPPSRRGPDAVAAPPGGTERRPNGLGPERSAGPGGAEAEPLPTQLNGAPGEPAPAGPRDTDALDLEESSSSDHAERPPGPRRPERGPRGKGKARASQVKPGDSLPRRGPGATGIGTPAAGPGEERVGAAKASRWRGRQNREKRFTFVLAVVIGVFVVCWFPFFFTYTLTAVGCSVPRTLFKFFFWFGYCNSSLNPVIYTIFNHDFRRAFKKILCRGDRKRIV
ASSAY PROCEDURE: cell-based
Known IC50 of a selection of compounds

COMPOUND	IC50
COCc1nc2ccccc2n1[C@H]1CCCN(C[C@H]2COc3ccccc3O2)C1	6.16 µM

Task: Query (compound): "CCN1CC(=O)N([C@H]2CCCN(C[C@H]3COc4ccccc4O3)C2)C1=O" ; field requested: IC50
Output: > 10 µM

Task: Value lookup for IC50; key = "O=C1c2cccnc2CN1[C@H]1CCCN(C[C@H]2COc3ccccc3O2)C1"
Output: > 10 µM

Task: Record request: IC50 value, item "CC1(C)CCN([C@H]2CCCN(C[C@H]3COc4ccccc4O3)C2)S1(=O)=O"
Output: > 10 µM

Task: Could you share which IC50 value was measured for "O=C1CN(C2CCCC2)C(=O)N1[C@H]1CCCN(C[C@H]2COc3ccccc3O2)C1" ?
Output: > 10 µM

----------
ASSAY SYSTEM: human alpha2C receptors (Homo sapiens, UniProt P18825)
ASSAY PROCEDURE: Determination of alpha2C antagonistic activity in vitro (FLIPR calcium assay)
pIC50: −log10 of the molar value.
MEASURED ENDPOINT: pIC50

LINE NOTATION	VALUE MEASURED
O=c1[nH]c2c(F)cccc2n1[C@H]1CCCN(C[C@H]2COc3ccccc3O2)C1	> 10.00

Task: Please report the recorded pIC50 for "CC(C)N1C(=O)N([C@H]2CCCN(C[C@H]3COc4ccccc4O3)C2)C[C@@H]1c1ccccc1" .
Output: > 10.00

Task: Requested field: pIC50. Item: "O=C1CN(Cc2ccccc2)C(=O)N1[C@H]1CCCN(C[C@H]2COc3ccccc3O2)C1"
Output: > 10.00

Task: What does the data say about its pIC50? Entry: "Cn1ncc2c1CN([C@H]1CCCN(C[C@H]3COc4ccccc4O3)C1)C2=O"
Output: < 5.00

----------
ASSAY SYSTEM: human alpha2C receptors (Homo sapiens, UniProt P18825)
Sequence (P18825 1-462): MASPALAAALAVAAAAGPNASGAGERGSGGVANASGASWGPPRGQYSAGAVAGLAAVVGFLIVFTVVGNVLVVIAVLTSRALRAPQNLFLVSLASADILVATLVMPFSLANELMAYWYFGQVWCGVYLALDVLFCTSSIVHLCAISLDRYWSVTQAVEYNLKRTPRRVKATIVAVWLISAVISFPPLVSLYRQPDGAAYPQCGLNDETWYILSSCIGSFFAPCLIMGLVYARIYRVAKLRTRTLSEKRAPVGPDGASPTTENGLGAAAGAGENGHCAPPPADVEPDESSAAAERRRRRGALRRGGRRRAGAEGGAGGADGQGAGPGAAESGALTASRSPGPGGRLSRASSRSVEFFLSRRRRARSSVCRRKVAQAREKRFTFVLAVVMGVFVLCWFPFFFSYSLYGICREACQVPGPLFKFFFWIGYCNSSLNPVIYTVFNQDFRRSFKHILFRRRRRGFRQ
ASSAY PROCEDURE: Determination of alpha2C antagonistic activity in vitro (FLIPR calcium assay)
MEASUREMENT SETUP: Alpha 2C Adrenaline Kb, Kb calculated from IC50 with the Cheng-Prusoff equation; adrenaline as agonist; CHO cells, human alpha2C
MEASURED ENDPOINT: Kb (nM)

// worked examples, Kb included
COMPOUND	ASSAY SYSTEM	Kb / nM
O=C1c2cncnc2CN1[C@H]1CCCN(C[C@H]2COc3ccccc3O2)C1 [example 23]	human alpha2C receptors (Homo sapiens, UniProt P18825)	1.81
CC(=O)NCc1ccc2c(c1)CN([C@H]1CCCN(C[C@H]3COc4ccccc4O3)C1)C2=O [example 71]	human alpha2C receptors (Homo sapiens, UniProt P18825)	0.012
O=C1Cc2ccccc2N1[C@H]1CCCN(C[C@H]2COc3ccccc3O2)C1 [example 26]	human alpha2C receptors (Homo sapiens, UniProt P18825)	2.81
O=C1C=C(c2ccc(F)cc2)CN1[C@H]1CCCN(C[C@H]2COc3ccccc3O2)C1 [example 41]	human alpha2C receptors (Homo sapiens, UniProt P18825)	1.19
CN1C(=O)N([C@H]2CCCN(C[C@H]3COc4ccccc4O3)C2)C(=O)C1(C)C [example 111]	human alpha2C receptors (Homo sapiens, UniProt P18825)	0.09

I = COc1ccc2c(c1)C(=O)N([C@H]1CCCN(C[C@H]3COc4ccccc4O3)C1)C2 [example 70]
II = C[C@@H]1NC(=O)N([C@H]2CCCN(C[C@H]3COc4ccccc4O3)C2)C1=O [example 113]
Task: Between I and II , which one shows the smaller Kb number? Use the label to indicate which entry you chose.
Output: II
(II: 0.015 nM, I: 0.091 nM)
